As shown below, each of these molecules has a reported fitness value.
# Test system: B. subtilis 168;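 also: OD595 on entry to stationary phase over no-drug wells; at most 1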
# Method description: fitness (endpoint OD595 vs no drug) (fraction); higher = more growth
# Condition: first compound 75 µg/mL; partner 2 µg/mL; main component drawn
Observable: fitness

[[record]]
molecule = "CC[C@H](C)[C@H](N)C1=N[C@H](C(=O)N[C@@H](CC(C)C)C(=O)N[C@H](CCC(=O)O)C(=O)N[C@H](C(=O)N[C@H]2CCCCNC(=O)[C@H](CC(N)=O)NC(=O)[C@@H](CC(=O)O)NC(=O)[C@H](Cc3cnc[nH]3)NC(=O)[C@@H](Cc3ccccc3)NC(=O)[C@H]([C@@H](C)CC)NC(=O)[C@@H](CCCN)NC2=O)[C@@H](C)CC)CS1 [Bacitracin] + COc1c(N2C[C@@H]3CCCN[C@@H]3C2)c(F)cc2c(=O)c(C(=O)O)cn(C3CC3)c12 [Moxifloxacin]"
assay_value = 0.0179

[[record]]
molecule = "CC[C@H](C)[C@H](N)C1=N[C@H](C(=O)N[C@@H](CC(C)C)C(=O)N[C@H](CCC(=O)O)C(=O)N[C@H](C(=O)N[C@H]2CCCCNC(=O)[C@H](CC(N)=O)NC(=O)[C@@H](CC(=O)O)NC(=O)[C@H](Cc3cnc[nH]3)NC(=O)[C@@H](Cc3ccccc3)NC(=O)[C@H]([C@@H](C)CC)NC(=O)[C@@H](CCCN)NC2=O)[C@@H](C)CC)CS1 [Bacitracin] + CO/N=C(\\C(=O)N[C@@H]1C(=O)N2C(C(=O)O)=C(COC(C)=O)CS[C@H]12)c1csc(N)n1 [Cefotaxime]"
assay_value = 0.0639

[[record]]
molecule = "CC[C@H](C)[C@H](N)C1=N[C@H](C(=O)N[C@@H](CC(C)C)C(=O)N[C@H](CCC(=O)O)C(=O)N[C@H](C(=O)N[C@H]2CCCCNC(=O)[C@H](CC(N)=O)NC(=O)[C@@H](CC(=O)O)NC(=O)[C@H](Cc3cnc[nH]3)NC(=O)[C@@H](Cc3ccccc3)NC(=O)[C@H]([C@@H](C)CC)NC(=O)[C@@H](CCCN)NC2=O)[C@@H](C)CC)CS1 [Bacitracin] + CN[C@@H]1[C@H](O)[C@H](NC)[C@H]2O[C@@]3(O)C(=O)C[C@@H](C)O[C@H]3O[C@@H]2[C@H]1O [Spectinomycin]"
assay_value = 0.889

[[record]]
molecule = "CC[C@H](C)[C@H](N)C1=N[C@H](C(=O)N[C@@H](CC(C)C)C(=O)N[C@H](CCC(=O)O)C(=O)N[C@H](C(=O)N[C@H]2CCCCNC(=O)[C@H](CC(N)=O)NC(=O)[C@@H](CC(=O)O)NC(=O)[C@H](Cc3cnc[nH]3)NC(=O)[C@@H](Cc3ccccc3)NC(=O)[C@H]([C@@H](C)CC)NC(=O)[C@@H](CCCN)NC2=O)[C@@H](C)CC)CS1 [Bacitracin] + Cc1cc(NS(=O)(=O)c2ccc(N)cc2)no1 [Sulfamethoxazol]"
assay_value = 0.851


Source of measurements: the supplement of paper PMC10627819
